# ASSAYED_SYSTEM: SfurOBP11 (Sogatella furcifera, UniProt V5T6E3)
# Sequence (V5T6E3 entry or part of it): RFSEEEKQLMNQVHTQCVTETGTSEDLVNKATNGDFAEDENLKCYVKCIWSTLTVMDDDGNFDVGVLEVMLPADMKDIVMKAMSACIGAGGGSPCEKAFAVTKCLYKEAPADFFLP
# TEST_NAME: biochemical
# Assay type: binding
# APPLIED_CONDITIONS: ligand concentration 16, replicate 2
REPORTED_PROPERTY: Fluorescence intensity, fluorescence competitive binding assay, OBP11

INSERT INTO results (molecule, measured_result) VALUES
  ('c1ccc2ccccc2c1', 25045),
  ('CCCCCCCCCCOCCCCCCCCCC', 67002),
  ('C=C(C)C1CC=C(C)CC1 (single isomer, unassigned; (+)) [(+)-limonene]', 18202),
  ('CC(C)COC(=O)CCCCC(=O)OCC(C)C [DA(diisobutyl adipate)]', 20828),
  ('CCCCCC=O', 16904),
  ('C=C1CC/C=C(\C)CC[C@@H]2[C@@H]1CC2(C)C', 23024),
  ('CCCCCCCCCCCCCC', 28430),
  ('CC(=O)/C=C/C1=C(C)CCCC1(C)C', 16765),
  ('C=CC(C)(O)CCC=C(C)C (centres unmarked)', 25844),
  ('CCCCCCCCCCCCCCCCCC', 28254),
  ('C[C@@H]1CC[C@H]2C(C)(C)[C@H]3C[C@@]12CC[C@@]3(C)O', 34203);
